- testTarget: Syk (Homo sapiens, UniProt P43405)
- Construct: purchased Carna Biosciences
- testName: Syk HTRF assay
- Format: biochemical
- statedConditions: read-out: Activity Level (Syk HTRF assay IC50)
measuredMetric: IC50

Use these answered entries as a reference point.
{"columns": ["testSmiles", "IC50"],
 "data": [
  ["Nc1noc2cc(Nc3nc4cccc(-c5ccccc5)n4n3)ccc12", "250 to 500 nM"],
  ["O=C1Cc2ccc(Nc3nc4cccc(N[C@H]5CC[C@@H](O)CC5)n4n3)cc2N1CCO", "250 to 500 nM"],
  ["CC(=O)Nc1ccc(-c2cccc3nc(Nc4ccccc4)nn23)cc1", "250 to 500 nM"],
  ["O=C1CCCN1c1ccc(Nc2nc3cccc(-c4ccccc4)n3n2)cc1", "0.005 to 250 nM"],
  ["Cn1nnc2ccc(Nc3nc4cccc(-c5cccc(O)c5)n4n3)cc21", "0.005 to 250 nM"]
]}

Suppose we examine the compound "Cc1n[nH]c2cc(Nc3nc4cccc(N[C@H]5CCOC5)n4n3)ccc12" ; what IC50 value has been reported?
250 to 500 nM

Suppose we examine the compound "Nc1noc2ccc(Nc3nc4cccc(-c5ccccc5)n4n3)cc12" ; what IC50 value has been reported?
0.005 to 250 nM

Suppose we examine the compound "COCc1nc2ccc(Nc3nc4cccc(Cc5ccnc(O)c5)n4n3)cc2[nH]1" ; what IC50 value has been reported?
0.005 to 250 nM

Suppose we examine the compound "Cc1cc(Nc2nc3cccc(NC4CCOCC4)n3n2)cc2c1cnn2C" ; what IC50 value has been reported?
0.005 to 250 nM

---

- testTarget: Syk (Homo sapiens)
- Construct: purchased Carna Biosciences
- testName: Syk HTRF assay
- Assay type: biochemical
- statedConditions: read-out: Activity Level (Syk HTRF assay IC50)
pIC50: −log10 of the molar value.
measuredMetric: pIC50

Hi! What's the reported pIC50 for Cc1n[nH]c2cc(Nc3nc4cccc(NC[C@@H]5CCC(O)C5)n4n3)ccc12 (stereo in doubt) [Example 179] on Syk (Homo sapiens)?
6.60 to 11.30

---

- testTarget: Syk (Homo sapiens, UniProt P43405)
- Construct: purchased Carna Biosciences
- testName: Syk HTRF assay
- Type: biochemical
- statedConditions: activity levels A-D, read-out: Activity Level (IC50 in the Syk HTRF assay)
pIC50: −log10 of the molar value.
measuredMetric: pIC50

Use these answered entries as a reference point.
{"columns": ["testSmiles", "pIC50"],
 "data": [
  ["CNc1ccc(Nc2nc3cccc(N[C@H]4CC[C@@H](O)CC4)n3n2)cn1", "6.60 to 11.30"],
  ["NC(=O)c1ccc(Nc2nc3cccc(N[C@H]4CC[C@@H](O)CC4)n3n2)c(F)c1", "5.00 to 6.00"]
]}

Continue with the compound presented below.
Suppose we examine the compound "Cc1n[nH]c2cc(Nc3nc4cccc(C[C@H]5CC[C@@H](O)CC5)n4n3)ccc12" ; what pIC50 value has been reported?
6.60 to 11.30

---

Below, each entry is listed alongside its reported IC50.
- testTarget: Syk (Homo sapiens, UniProt P43405)
- Construct: purchased Carna Biosciences
- testName: Syk HTRF assay
- Type: biochemical
- statedConditions: IC50 activity level, read-out: Activity Level

Use these answered entries as a reference point.
{"columns": ["molecule", "measuredMetric", "reportedMeasurement"],
 "data": [
  ["CC1(C)C(=O)Nc2cc(Nc3nc4cccc(CC5CCOC5)n4n3)ccc21 (single isomer, unassigned; enantiomer 1) [Example 561]", "IC50", "0.005 to 250 nM"],
  ["Cn1c(=O)[nH]c2cc(Nc3nc4cccc(NC5CCOCC5)n4n3)ccc21 [Example 569]", "IC50", "0.005 to 250 nM"],
  ["N[C@H]1CC[C@@H](Nc2cccc3nc(Nc4ccccc4)nn23)CC1 [Example 508]", "IC50", "250 to 500 nM"]
]}

Continue with the molecule presented below.
Suppose we examine the molecule c1cc(N[C@H]2CCCNC2)n2nc(Nc3ccc4nn[nH]c4c3)nc2c1 [Example 454] ; what IC50 value has been reported?
0.005 to 250 nM

---

Below, each entry is listed alongside its reported IC50.
- testTarget: Syk (Homo sapiens, UniProt P43405)
- Construct: purchased Carna Biosciences
- testName: Syk HTRF assay
- Type: biochemical
- statedConditions: read-out: Activity Level (Syk HTRF assay IC50)

Use these answered entries as a reference point.
{"columns": ["compound", "reportedMeasurement"],
 "data": [
  ["O=c1cc(C(O)c2cccc3nc(Nc4ccc(C(F)(F)F)cc4)nn23)nc[nH]1 (stereo not drawn) [Example 193]", "0.005 to 250 nM"],
  ["Cc1n[nH]c2cc(Nc3nc4cccc(NC5CCOC5)n4n3)ccc12 (stereo in doubt) [Example 167]", "0.005 to 250 nM"],
  ["Cn1ncc2ccc(Nc3nc4cccc(NC5CCOCC5)n4n3)cc21 [Example 161]", "0.005 to 250 nM"],
  ["c1cc(NC2CCOCC2)n2nc(Nc3cnc4cn[nH]c4c3)nc2c1 [compound 111]", "1000 to 10000 nM"]
]}

Suppose we examine the compound O=C1NCc2cc(Nc3nc4cccc(Cc5ccnc(O)c5)n4n3)ccc21 [Example 157] ; what IC50 value has been reported?
0.005 to 250 nM

Suppose we examine the compound Cc1n[nH]c2cc(Nc3nc4cccc(CN5CCCC(F)(F)C5)n4n3)ccc12 [Example 184] ; what IC50 value has been reported?
0.005 to 250 nM

Suppose we examine the compound NC(=O)c1cc(Nc2nc3cccc(-c4ccccc4)n3n2)ccc1F [compound 65] ; what IC50 value has been reported?
1000 to 10000 nM

Suppose we examine the compound Nc1ccc2cc(Nc3nc4cccc(-c5ccccc5)n4n3)ccc2n1 [compound 17] ; what IC50 value has been reported?
0.005 to 250 nM

Suppose we examine the compound Cn1cnc2ccc(Nc3nc4cccc(-c5cccc(F)c5)n4n3)cc21 [compound 4] ; what IC50 value has been reported?
0.005 to 250 nM

Suppose we examine the compound CN1C(=O)C(C)(C)c2ccc(Nc3nc4cccc(CN5CCNC(=O)C5)n4n3)cc21 [Example 136] ; what IC50 value has been reported?
0.005 to 250 nM

Suppose we examine the compound CC1(C)C(=O)Nc2cc(Nc3nc4cccc(C(O)C5CCOCC5)n4n3)ccc21 (stereo not drawn) [Example 173] ; what IC50 value has been reported?
250 to 500 nM

---

- testTarget: Syk (Homo sapiens, UniProt P43405)
- Construct: purchased Carna Biosciences
- testName: Syk HTRF assay
- Assay type: biochemical
- statedConditions: activity levels A-D, read-out: Activity Level (IC50 in the Syk HTRF assay)
measuredMetric: IC50

Use these answered entries as a reference point.
{"columns": ["compound", "IC50"],
 "data": [
  ["O[C@H]1CCC[C@H](Nc2cccc3nc(Nc4ccc(C(F)(F)F)cc4)nn23)C1 (single isomer, unassigned; enantiomer 2) [Example 226]", "500 to 1000 nM"],
  ["CNC(=O)c1ccc(Nc2nc3cccc(N4CCC(O)C4)n3n2)cc1 (stereo in doubt)", "500 to 1000 nM"],
  ["OCC1CCCN(Cc2cccc3nc(Nc4ccc(C(F)(F)F)cc4)nn23)C1 (centres unmarked)", "1000 to 10000 nM"],
  ["O[C@H]1CC[C@@H](Nc2cccc3nc(Nc4ccc(F)c(F)c4)nn23)CC1", "250 to 500 nM"],
  ["CNC(=O)c1ccc(Nc2nc3cccc(OC4CCC(N)CC4)n3n2)cc1 (stereo in doubt)", "250 to 500 nM"]
]}

Suppose we examine the compound "NC(=O)CNCc1cccc2nc(Nc3ccc(C(F)(F)F)cc3)nn12" ; what IC50 value has been reported?
0.005 to 250 nM

---

- testTarget: Syk (Homo sapiens, UniProt P43405)
- Construct: purchased Carna Biosciences
- testName: Syk HTRF assay
- Format: biochemical
- statedConditions: activity levels A-D, read-out: Activity Level (IC50 in the Syk HTRF assay)
pIC50: −log10 of the molar value.
Below, each entry is listed alongside its reported pIC50.

{"columns": ["compound", "testTarget", "pIC50"],
 "data": [
  ["OCC1CN(c2cccc3nc(Nc4ccc(C(F)(F)F)cc4)nn23)C1 [Example 259]", "Syk (Homo sapiens, UniProt P43405)", "6.60 to 11.30"],
  ["O=C1NCCC1NCc1cccc2nc(Nc3ccc(C(F)(F)F)cc3)nn12 (racemic) [Example 207]", "Syk (Homo sapiens, UniProt P43405)", "5.00 to 6.00"]
]}

Hi! What's the reported pIC50 for C[C@]1(O)CC[C@H](Nc2cccc3nc(Nc4ccc(C(F)(F)F)cc4)nn23)CC1 [Example 384] on Syk (Homo sapiens, UniProt P43405)?
6.60 to 11.30

Hi! What's the reported pIC50 for COc1ccc(Nc2nc3cccc(N[C@H]4CC[C@@H](O)CC4)n3n2)cn1 [Example 391] on Syk (Homo sapiens, UniProt P43405)?
6.00 to 6.30
